Measured On: TYK2 JH2 domain (Homo sapiens (Human), UniProt P29597)
Sequence (P29597 589-875): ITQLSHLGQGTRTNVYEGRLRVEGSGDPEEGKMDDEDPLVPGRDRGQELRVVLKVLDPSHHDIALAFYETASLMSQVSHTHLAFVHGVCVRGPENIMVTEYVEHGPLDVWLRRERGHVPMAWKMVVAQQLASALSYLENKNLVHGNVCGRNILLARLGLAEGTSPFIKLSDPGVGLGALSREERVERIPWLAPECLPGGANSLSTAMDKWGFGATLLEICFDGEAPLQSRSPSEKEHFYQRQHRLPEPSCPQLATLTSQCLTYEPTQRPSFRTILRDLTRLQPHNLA
Test Details: TYK2 JH2 NanoBRET assay
Format: binding
Condition Set: Table 20, read-out: TYK2 IC50
Parameter Measured: IC50

Known IC50 results, listed for orientation:
Compound: CCC(=O)c1cnc(NC(=O)CCCN2CCCC2)cc1Nc1cccc(-c2ncn(C)n2)c1OC [Compound 23E]
IC50: 50 to 500 nM
--
Compound: CCC(=O)c1cnc(Nc2ccc(OC(CO)CO)cn2)cc1Nc1cccc(-c2ncn(C)n2)c1OC [Compound 18H]
IC50: 5 to 50 nM
--
Compound: CCC(=O)c1cnc(Nc2ccn(-c3ccccc3)c(=O)n2)cc1Nc1nccc(-c2ncn(C)n2)c1OC [Compound 15S]
IC50: 5 to 50 nM
--
Compound: CCC(=O)c1cnc(Nc2ccc(CN3CCOCC3)cn2)cc1Nc1cccc(-c2ncn(C)n2)c1OC
IC50: < 5 nM
--
Compound: CCC(=O)c1cnc(Nc2ccc(OCCCO)nn2)cc1Nc1cccc(-c2ncn(C)n2)c1OC [Compound 18N]
IC50: < 5 nM

Task item: Which IC50 value is on record for CCC(=O)c1cnc(Nc2ccc(OCCO)nn2)cc1Nc1cccc(-c2ncn(C)n2)c1OC [Compound 18M] ?
Reply: < 5 nM

Task item: What do we get for CCC(=O)c1cnc(Nc2cc(CN(C)C)ncn2)cc1Nc1cccc(-c2ncn(C)n2)c1OC [Compound 17A] ?
Reply: < 5 nM

Task item: Then this compound: `CCC(=O)c1cnc(Nc2cnc(OC3CCN(C)CC3)cn2)cc1Nc1cccc(-c2ncn(C)n2)c1OC`
Reply: < 5 nM

Task item: Moving on to `CCC(=O)c1cnc(Nc2ccc(CN3CC[C@H](F)C3)cn2)cc1Nc1cccc(-c2ncn(C)n2)c1OC`
Reply: < 5 nM

Task item: What do you have for CCC(=O)c1cnc(Nc2cnc(C(F)(F)CN3CCCC3)cn2)cc1Nc1cccc(-c2ncn(C)n2)c1OC [Compound 19E] ?
Reply: 5 to 50 nM

###

Measured On: TYK2 JH2 domain (Homo sapiens (Human))
Test Details: TYK2 JH2 NanoBRET assay
Format: binding
Condition Set: HEK293T cells, Table 19, read-out: IC50 (nM), TYK2 activity
Parameter Measured: IC50

Previously resolved entries follow.
Chemical String: COc1c(Nc2cc(Nc3cc(C#N)ccn3)ncc2C(C)=O)cccc1-c1ncn(C)n1
Measured On: TYK2 JH2 domain (Homo sapiens (Human))
Data Value: < 5 nM
//
Chemical String: COc1cccc(Nc2cc(Nc3cccc(-c4ncn(C)n4)c3OC)c(C(C)=O)cn2)n1
Measured On: TYK2 JH2 domain (Homo sapiens (Human))
Data Value: < 5 nM
//
Chemical String: COc1c(Nc2cc(Nc3ncc(F)cn3)ncc2C(C)=O)cccc1-c1ncn(C)n1
Measured On: TYK2 JH2 domain (Homo sapiens (Human))
Data Value: 50 to 500 nM
//
Chemical String: COc1ccnc(Nc2cc(Nc3cccc(-c4ncn(C)n4)c3OC)c(C(C)=O)cn2)c1
Measured On: TYK2 JH2 domain (Homo sapiens (Human))
Data Value: < 5 nM

Task item: Which measured IC50 value corresponds to `COc1ccc(Nc2cc(Nc3cccc(-c4ncn(C)n4)c3OC)c(C(C)=O)cn2)nc1` ?
Reply: < 5 nM

Task item: Try `COc1c(Nc2cc(Nc3ccc(F)cc3)ncc2C(C)=O)cccc1-c1ncn(C)n1` next.
Reply: ≥ 500 nM

Task item: Likewise for `COC(=O)c1cnc(NC(=O)C2CC2)cc1Nc1cccc(-c2ncn(C)n2)c1OC` ?
Reply: < 5 nM

###

// each record: one item and its pIC50 for human JAK2 (Homo sapiens (Human))
pIC50: −log10 of the molar value.

Compound: CCC(=O)c1cnc(Nc2cc(C)n(CCOC)n2)cc1Nc1cccc(-c2ncn(C)n2)c1OC [Compound 21Z]
pIC50: ≤ 6.30

Task item: Give recorded pIC50 with human JAK2 (Homo sapiens (Human)) for the following compound: CCC(=O)c1cnc(Nc2cnc(OCCN3CCCC3)cn2)cc1Nc1cccc(-c2ncn(C)n2)c1OC [Compound 18VV]
Sequence (O60674 whole entry): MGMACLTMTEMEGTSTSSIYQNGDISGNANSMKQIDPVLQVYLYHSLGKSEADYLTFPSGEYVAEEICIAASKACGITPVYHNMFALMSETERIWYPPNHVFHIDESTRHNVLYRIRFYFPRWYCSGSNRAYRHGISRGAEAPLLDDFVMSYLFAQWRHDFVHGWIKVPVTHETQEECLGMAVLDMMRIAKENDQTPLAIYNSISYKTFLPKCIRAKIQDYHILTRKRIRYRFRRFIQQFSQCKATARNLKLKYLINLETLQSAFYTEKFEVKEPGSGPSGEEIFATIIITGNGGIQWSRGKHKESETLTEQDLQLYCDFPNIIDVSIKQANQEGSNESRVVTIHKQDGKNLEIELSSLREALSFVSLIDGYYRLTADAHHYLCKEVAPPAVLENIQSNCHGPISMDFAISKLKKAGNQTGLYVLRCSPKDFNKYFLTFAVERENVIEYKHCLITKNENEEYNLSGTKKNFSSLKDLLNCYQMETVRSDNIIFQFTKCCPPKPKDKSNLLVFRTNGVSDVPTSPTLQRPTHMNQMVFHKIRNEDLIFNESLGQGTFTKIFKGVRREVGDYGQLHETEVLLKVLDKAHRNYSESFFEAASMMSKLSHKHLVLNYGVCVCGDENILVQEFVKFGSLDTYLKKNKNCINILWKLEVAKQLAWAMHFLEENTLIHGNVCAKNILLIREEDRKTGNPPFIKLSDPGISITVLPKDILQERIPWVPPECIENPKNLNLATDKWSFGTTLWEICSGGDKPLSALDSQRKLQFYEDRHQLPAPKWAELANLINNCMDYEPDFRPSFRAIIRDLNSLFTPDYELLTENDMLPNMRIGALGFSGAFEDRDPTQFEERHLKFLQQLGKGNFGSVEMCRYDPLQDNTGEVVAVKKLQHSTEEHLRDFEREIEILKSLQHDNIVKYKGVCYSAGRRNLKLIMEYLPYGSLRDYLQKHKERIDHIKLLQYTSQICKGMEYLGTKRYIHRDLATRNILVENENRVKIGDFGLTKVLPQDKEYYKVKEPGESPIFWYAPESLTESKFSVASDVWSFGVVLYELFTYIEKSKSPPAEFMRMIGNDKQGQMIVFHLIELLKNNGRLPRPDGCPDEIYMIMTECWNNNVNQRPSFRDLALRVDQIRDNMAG
Reply: ≤ 6.30

Task item: Again, but for CCC(=O)c1cnc(Nc2ccn(CC3CCCO3)n2)cc1Nc1cccc(-c2ncn(C)n2)c1OC (stereo not shown) [Compound 21S]
Reply: ≤ 6.30

Task item: What about this compound? CCC(=O)c1cnc(Nc2ccc(-n3ccnc(C)c3=O)cn2)cc1Nc1cccc(-c2ncn(C)n2)c1OC [Compound 15X]
Reply: 6.30 to 7.30

###

Measured On: TYK2 JH2 domain (Homo sapiens (Human), UniProt P29597)
Test Details: TYK2 JH2 NanoBRET assay
Assay type: binding
Condition Set: Table 20, read-out: TYK2 IC50
Parameter Measured: IC50

Molecule: COc1c(Nc2cc(Nc3ccc(OCCO)cn3)ncc2C(=O)C2CC2)cccc1-c1ncn(C)n1 [Compound 18B]
IC50: < 5 nM
//
Molecule: CCC(=O)c1cnc(Nc2cc(C(C)N)ncn2)cc1Nc1cccc(-c2ncn(C)n2)c1OC (stereo not shown)
IC50: < 5 nM
//
Molecule: CCC(=O)c1cnc(Nc2cc(C(C)N(C)C)ncn2)cc1Nc1cccc(-c2ncn(C)n2)c1OC (stereo not shown)
IC50: < 5 nM
//
Molecule: [2H]C([2H])([2H])N(Cc1ccc(Nc2cc(Nc3cccc(-c4ncn(C)n4)c3OC)c(C(=O)CC)cn2)nc1)C([2H])([2H])[2H]
IC50: < 5 nM
//
Molecule: CCC(=O)c1cnc(Nc2ccc(S(C)(=O)=O)cn2)cc1Nc1nccc(-c2ncn(C)n2)c1OC [Compound 13I]
IC50: < 5 nM

Task item: Reported IC50 for TYK2 JH2 domain (Homo sapiens (Human), UniProt P29597), given `CCC(=O)c1cnc(Nc2cccc(C(N)=O)n2)cc1Nc1cccc(-c2ncn(C)n2)c1OC` ?
Reply: < 5 nM

Task item: Entry `CCC(=O)c1cnc(Nc2ccc(CN3CC(C#N)C3)cn2)cc1Nc1cccc(-c2ncn(C)n2)c1OC` please
Reply: 5 to 50 nM

Task item: Same for `CCC(=O)c1cnc(Nc2ccc([C@@H](C)N3C[C@@H](O)[C@H](O)C3)cn2)cc1Nc1cccc(-c2ncn(C)n2)c1OC`
Reply: 5 to 50 nM

Task item: Let us now turn to `CCC(=O)c1cnc(Nc2ccc(CN(C)CC)cn2)cc1Nc1cccc(-c2ncn(C)n2)c1OC`
Reply: < 5 nM

Task item: Next up: CCC(=O)c1cnc(Nc2ccc(S(=O)(=O)NC)cn2)cc1Nc1cccc(-c2ncn(C)n2)c1OC [Compound 13C]
Reply: 5 to 50 nM

Task item: What about this molecule? CCC(=O)c1cnc(Nc2ccc(C(C)NCC(F)(F)F)cn2)cc1Nc1cccc(-c2ncn(C)n2)c1OC (stereo not shown)
Reply: 5 to 50 nM

Task item: Same question, `CCC(=O)c1cnc(Nc2ccc(CN(C)C)nn2)cc1Nc1cccc(-c2ncn(C)n2)c1OC` this time
Reply: 5 to 50 nM

Task item: Also check CCC(=O)c1cnc(Nc2ccc(S(=O)(=O)C3CC3)cn2)cc1Nc1cccc(-c2ncn(C)n2)c1OC [Compound 13H]
Reply: < 5 nM

Task item: Again, but for `CCC(=O)c1cnc(Nc2ccc([C@H](C)N3CC[C@H](O)C3)cn2)cc1Nc1cccc(-c2ncn(C)n2)c1OC`
Reply: < 5 nM

Task item: Also check `CCC(=O)c1cnc(Nc2cnc(CN3CCCC3)cn2)cc1Nc1cccc(-c2ncn(C)n2)c1OC`
Reply: < 5 nM

Task item: # iterate: `CCC(=O)c1cnc(Nc2cnc(O[C@H]3CCCN(C)C3)cn2)cc1Nc1cccc(-c2ncn(C)n2)c1OC`
Reply: 5 to 50 nM

###

Each record here notes measured IC50.
Measured On: TYK2 JH2 domain (Homo sapiens (Human), UniProt P29597)
Test Details: TYK2 JH2 NanoBRET assay
Assay type: binding
Condition Set: Table 20, read-out: TYK2 IC50

Solved cases below.
Compound: CCC(=O)c1cnc(NC(=O)C2CC2)cc1Nc1cc(F)cc(-c2ncn(C)n2)c1OC [Compound 25A]
Data Value: 5 to 50 nM
--
Compound: CCO[C@H]1C[C@@H](n2nc(Nc3cc(Nc4cccc(-c5ncn(C)n5)c4OC)c(C(=O)CC)cn3)cc2C)C1 [Compound 21FF]
Data Value: < 5 nM
--
Compound: CCC(=O)c1cnc(Nc2ccc(C3(N)CC3)cn2)cc1Nc1cccc(-c2ncn(C)n2)c1OC
Data Value: < 5 nM

Task item: Entry under review: `CCC(=O)c1cnc(Nc2ccc([C@H](C)N3C[C@@H](O)[C@H](O)C3)cn2)cc1Nc1cccc(-c2ncn(C)n2)c1OC` . Reported IC50?
Reply: 5 to 50 nM

Task item: Try this compound next: `CCC(=O)c1cnc(Nc2cnc(CN(C)CC(F)(F)F)cn2)cc1Nc1cccc(-c2ncn(C)n2)c1OC`
Reply: 5 to 50 nM

Task item: Another compound to check: `CCC(=O)c1cnc(Nc2ccc(CN3[C@H](C)COC[C@@H]3C)cn2)cc1Nc1cccc(-c2ncn(C)n2)c1OC`
Reply: < 5 nM
